Catalogue of compounds with associated pIC50
Biological target: P2X purinoceptor 7 (Homo sapiens)
pIC50: −log10 of the molar value.
ASSAY_ENDPOINT: pIC50

* Cc1nn(Cc2cccnc2)c(C)c1CC(=O)NCc1ccc(F)cc1Cl | 6.90
* Cc1nn(-c2ccccc2)c(C)c1CC(=O)NCc1cccc(Cl)c1Cl | 7.60
* Cc1nn(-c2ccccc2)c(C)c1NC(=O)NCc1ccc(F)cc1Cl | 6.60
* Cc1nn(-c2ccc(C(N)=O)cc2)c(C)c1CC(=O)NCc1ccc(F)cc1Cl | 8.00
* Cc1nn(-c2ccccc2)c(C)c1CC(=O)NCc1ccc(Cl)cc1Cl | 7.10
* Cc1nn(-c2ncccn2)c(C)c1CC(=O)NCc1ccc(F)cc1Cl | 7.30

* * *

Test: Tmax in rat blood at 3 mg/kg, po
Format: ADME, organism-based
Parameters: dose 3 mg/kg, route oral
ASSAY_ENDPOINT: Tmax (h)

- Cc1n[nH]c(C)c1CC(=O)NCc1ccc(F)cc1Cl: 1

* * *

Listed below: solubility values for each entry.
Assay: Aqueous solubility of the compound
Assay type: physicochemical
ASSAY_ENDPOINT: solubility (µg/mL)

* Cc1n[nH]c(C)c1CC(=O)NCc1ccc(F)cc1Cl | 732
* Cc1nn(-c2ccccc2)c(C)c1CC(=O)NCc1ccc(F)cc1Cl | 110

* * *

Target sequence: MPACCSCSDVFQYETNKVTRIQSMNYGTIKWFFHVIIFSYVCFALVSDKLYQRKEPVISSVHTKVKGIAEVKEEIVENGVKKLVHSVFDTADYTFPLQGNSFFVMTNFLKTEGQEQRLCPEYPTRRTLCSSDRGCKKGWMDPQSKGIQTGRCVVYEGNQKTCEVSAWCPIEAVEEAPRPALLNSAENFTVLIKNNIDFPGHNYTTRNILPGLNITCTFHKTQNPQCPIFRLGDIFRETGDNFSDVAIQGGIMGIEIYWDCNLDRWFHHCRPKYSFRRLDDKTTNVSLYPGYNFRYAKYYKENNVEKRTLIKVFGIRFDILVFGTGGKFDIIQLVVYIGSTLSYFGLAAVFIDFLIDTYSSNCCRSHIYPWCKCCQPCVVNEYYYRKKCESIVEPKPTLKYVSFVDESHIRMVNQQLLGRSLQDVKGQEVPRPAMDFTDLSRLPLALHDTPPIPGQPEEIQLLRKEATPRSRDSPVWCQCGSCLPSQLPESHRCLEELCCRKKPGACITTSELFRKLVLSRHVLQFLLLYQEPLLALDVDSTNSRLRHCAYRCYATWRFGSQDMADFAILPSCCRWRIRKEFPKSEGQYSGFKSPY
ASSAY_ENDPOINT: IC50 (nM)

- Cc1c(CC(=O)NCc2ccc(F)cc2Cl)cnn1-c1ccccc1: 158
- Cc1nn(-c2ccccc2)c(C)c1Cc1nnc(Cc2ccc(Cl)cc2Cl)o1: 1260
- Cc1nn(Cc2ccccc2)c(C)c1CC(=O)NCc1ccc(F)cc1Cl: 316
- COc1ccc(-n2nc(C)c(CC(=O)NCc3ccc(F)cc3Cl)c2C)cc1: 100
- Cc1nn(CCN(C)C)c(C)c1CC(=O)NCc1ccc(F)cc1Cl: 316

* * *

Assay: Cmax in rat blood at 3 mg/kg, po
Type: ADME, organism-based
Set-up: dose 3 mg/kg, route oral
ASSAY_ENDPOINT: Cmax

• Cc1n[nH]c(C)c1CC(=O)NCc1ccc(F)cc1Cl = 2920 nM

* * *

Experiment: Half life in rat blood at 1 mg/kg, iv
Type: ADME, organism-based
Set-up: dose 1 mg/kg, route intravenous
ASSAY_ENDPOINT: half-life (h)

• Cc1n[nH]c(C)c1CC(=O)NCc1ccc(F)cc1Cl = 1.7
